- ASSAY_TARGET: dAsCas12a S542R (Acidaminococcus sp., UniProt U2UMQ6 1-1307, S542R;D908A;E993A;D1235A)
- METHOD_DESCRIPTION: Spec-seq (native PAGE EMSA with sequencing of bound and unbound); 25 mM Tris-HCl pH 7.4, 150 mM KCl, 5 mM MgCl2, 10% glycerol, 1 mM DTT, 40 ng/uL salmon sperm DNA; 400 nM Cas12a, 480 nM crRNA, 50 nM library, 37 C 1 h; native PAGE at room temperature; high values mean tight binding;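 also: relative affinity from the bound to unbound sequence frequency ratio in Spec-seq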
- ASSAY_CONTEXT: protein: recombinant
Cut-off -8 lnKA on binding signal, inclusive. At or above means class 1; below means class 0.

Ask: Does the binder AGAT (dsDNA) DNA 1: GCTATCTAGTGCTCAGTACGCACTGAGATAGGAAACTTCTGGCAGGACCAGGTCATGAGATCGGAAGAGCACACGTCTGAACTCCAGTCA DNA 2: TGACTGGAGTTCAGACGTGTGCTCTTCCGATCTCATGACCTGGTCCTGCCAGAAGTTTCCTATCTCAGTGCGTACTGAGCACTAGATAGC RNA: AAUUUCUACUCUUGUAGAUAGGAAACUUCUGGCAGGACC have recorded binding signal that is -8 lnKA or more?
Result: class 0

Ask: Another binder to look at: GGCG (dsDNA) DNA 1: GCTATCTAGTGCTCAGTACGCACTGGGCGAGGAAACTTCTGGCAGGACCAGGTCATGAGATCGGAAGAGCACACGTCTGAACTCCAGTCA DNA 2: TGACTGGAGTTCAGACGTGTGCTCTTCCGATCTCATGACCTGGTCCTGCCAGAAGTTTCCTCGCCCAGTGCGTACTGAGCACTAGATAGC RNA: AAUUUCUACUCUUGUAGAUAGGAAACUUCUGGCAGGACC
Result: class 0

Ask: Another binder to look at: TCCC (dsDNA) DNA 1: GCTATCTAGTGCTCAGTACGCACTGTCCCAGGAAACTTCTGGCAGGACCAGGTCATGAGATCGGAAGAGCACACGTCTGAACTCCAGTCA DNA 2: TGACTGGAGTTCAGACGTGTGCTCTTCCGATCTCATGACCTGGTCCTGCCAGAAGTTTCCTGGGACAGTGCGTACTGAGCACTAGATAGC RNA: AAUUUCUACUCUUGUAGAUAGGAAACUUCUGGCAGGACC
Result: class 1

Ask: Another binder to look at: CTTT (dsDNA) DNA 1: GCTATCTAGTGCTCAGTACGCACTGCTTTAGGAAACTTCTGGCAGGACCAGGTCATGAGATCGGAAGAGCACACGTCTGAACTCCAGTCA DNA 2: TGACTGGAGTTCAGACGTGTGCTCTTCCGATCTCATGACCTGGTCCTGCCAGAAGTTTCCTAAAGCAGTGCGTACTGAGCACTAGATAGC RNA: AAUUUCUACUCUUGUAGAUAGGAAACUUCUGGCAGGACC
Result: class 1

Ask: Another binder to look at: TACC (dsDNA) DNA 1: GCTATCTAGTGCTCAGTACGCACTGTACCAGGAAACTTCTGGCAGGACCAGGTCATGAGATCGGAAGAGCACACGTCTGAACTCCAGTCA DNA 2: TGACTGGAGTTCAGACGTGTGCTCTTCCGATCTCATGACCTGGTCCTGCCAGAAGTTTCCTGGTACAGTGCGTACTGAGCACTAGATAGC RNA: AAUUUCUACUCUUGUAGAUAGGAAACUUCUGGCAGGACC
Result: class 1

Ask: Another binder to look at: AGGC (dsDNA) DNA 1: GCTATCTAGTGCTCAGTACGCACTGAGGCAGGAAACTTCTGGCAGGACCAGGTCATGAGATCGGAAGAGCACACGTCTGAACTCCAGTCA DNA 2: TGACTGGAGTTCAGACGTGTGCTCTTCCGATCTCATGACCTGGTCCTGCCAGAAGTTTCCTGCCTCAGTGCGTACTGAGCACTAGATAGC RNA: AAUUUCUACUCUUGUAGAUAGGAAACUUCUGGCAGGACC
Result: class 0

Ask: Another binder to look at: CATG (dsDNA) DNA 1: GCTATCTAGTGCTCAGTACGCACTGCATGAGGAAACTTCTGGCAGGACCAGGTCATGAGATCGGAAGAGCACACGTCTGAACTCCAGTCA DNA 2: TGACTGGAGTTCAGACGTGTGCTCTTCCGATCTCATGACCTGGTCCTGCCAGAAGTTTCCTCATGCAGTGCGTACTGAGCACTAGATAGC RNA: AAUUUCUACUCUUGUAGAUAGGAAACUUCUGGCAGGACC
Result: class 0

Source: paper PMC8222333
